Values were extracted from patent US20250243281A1.

- measured on: T1, hCLEC2D (human, UniProt Q9UHP7 1-191)
- T1 construct: Overexpressed on HEK293 or K562 cells; the same id is used for endogenous CLEC2D on NALM6 and Raji cells; also called LLT1
- T1 sequence: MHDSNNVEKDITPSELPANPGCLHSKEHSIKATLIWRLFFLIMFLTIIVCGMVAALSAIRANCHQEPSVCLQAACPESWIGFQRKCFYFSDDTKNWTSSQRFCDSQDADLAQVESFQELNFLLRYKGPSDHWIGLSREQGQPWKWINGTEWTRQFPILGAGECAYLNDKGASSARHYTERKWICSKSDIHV
- experiment notes: flow cytometry, HEK293 transfectants, 100 nM antibody;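 further: antibody applied at a saturating level and incubated with cells for 30 min at room temperature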
observable: % of CD161 binding (%)

>>> assay_value("Ab16 (antibody, human IgG1, V domains shown, IgG purified from yeast culture) VH: QVQLVESGGGLVKPGGSLRLSCAASGFTFSDYYMSWIRQAPGKGLEWVSYISPSGATIAYADSVKGRFTISRDNSKNTLYLQMNSLRAEDTAVYYCARSLMATGTHLYFDLWGRGTLVTVSS VL: DIQLTQSPSSVSASVGDRVTITCRASQGISSWLAWYQQKPGKAPKLLIYAASGLQSGVPSRFSGSGSGTDFTLTISSLQPEDFATYYCQQSTSFPPYTFGGGTKVEIK")
0.865
